B1: TPR t1 (parent)
chain: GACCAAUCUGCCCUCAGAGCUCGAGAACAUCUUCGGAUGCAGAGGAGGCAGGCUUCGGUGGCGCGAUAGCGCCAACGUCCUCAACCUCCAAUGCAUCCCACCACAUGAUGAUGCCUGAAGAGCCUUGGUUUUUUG

Variants of: B1
protocol: polymerase ribozyme fitness, log enrichment relative to wild type (log ratio); higher = more active; in vitro selection for triplet polymerase activity
value-type: polymerase ribozyme fitness (log ratio)
# print the numeric value only

As a guide, the following entries are already answered.
variant	value-type	reported-result
A50G C70U G113C	polymerase ribozyme fitness (log ratio)	-3.88
C62U C72G C94A	polymerase ribozyme fitness (log ratio)	-3.29

Look up and state reported polymerase ribozyme fitness (log ratio) for A6G C15U C56U G69U U112A G117A
-1.54
